# Species: Homo sapiens
# procedure-details: Selectivity ratio of IC50 for His-tagged recombinant human full length PI3K p110gamma to IC50 for His-tagged recombinant human PI3K p110delta/p85alpha
measured-property: Ratio IC50

(P) C[C@@H](Nc1ncnc(N)c1C#N)C1=Nc2cccc(Cl)c2S(=O)(=O)N1c1ccccc1
(Q) C[C@H](Nc1ncnc2[nH]cnc12)C1=Nc2cccc(Cl)c2S(=O)(=O)N1c1ccccc1
Identify the entry with the larger Ratio IC50. Options: P and Q Returns: label corresponding to the selected item. Q
(Q: 34, P: 16)

====

# subject-of-test: PI3-kinase p110-delta/p85-alpha (Homo sapiens, UniProt O00329)
# Sequence (P27986 whole entry): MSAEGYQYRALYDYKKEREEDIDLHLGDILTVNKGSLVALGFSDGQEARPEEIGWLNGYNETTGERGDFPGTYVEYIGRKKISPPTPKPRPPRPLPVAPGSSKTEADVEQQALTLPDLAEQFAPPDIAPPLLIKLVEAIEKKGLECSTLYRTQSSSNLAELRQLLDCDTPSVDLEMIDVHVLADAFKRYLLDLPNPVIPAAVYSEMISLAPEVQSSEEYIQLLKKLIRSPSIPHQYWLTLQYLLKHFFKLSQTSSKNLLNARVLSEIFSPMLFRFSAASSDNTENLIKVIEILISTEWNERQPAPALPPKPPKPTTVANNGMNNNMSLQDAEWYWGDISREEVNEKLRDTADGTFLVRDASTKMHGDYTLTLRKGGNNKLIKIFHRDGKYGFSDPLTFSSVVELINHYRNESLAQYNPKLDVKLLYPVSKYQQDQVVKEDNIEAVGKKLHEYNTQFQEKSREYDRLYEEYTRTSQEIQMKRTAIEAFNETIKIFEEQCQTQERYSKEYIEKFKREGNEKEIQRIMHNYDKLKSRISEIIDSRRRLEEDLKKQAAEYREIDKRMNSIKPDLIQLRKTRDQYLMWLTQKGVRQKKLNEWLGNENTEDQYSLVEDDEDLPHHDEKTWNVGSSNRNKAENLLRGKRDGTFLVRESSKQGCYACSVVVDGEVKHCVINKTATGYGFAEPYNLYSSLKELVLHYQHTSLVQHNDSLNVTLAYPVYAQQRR
# Sequence (O00329 whole entry): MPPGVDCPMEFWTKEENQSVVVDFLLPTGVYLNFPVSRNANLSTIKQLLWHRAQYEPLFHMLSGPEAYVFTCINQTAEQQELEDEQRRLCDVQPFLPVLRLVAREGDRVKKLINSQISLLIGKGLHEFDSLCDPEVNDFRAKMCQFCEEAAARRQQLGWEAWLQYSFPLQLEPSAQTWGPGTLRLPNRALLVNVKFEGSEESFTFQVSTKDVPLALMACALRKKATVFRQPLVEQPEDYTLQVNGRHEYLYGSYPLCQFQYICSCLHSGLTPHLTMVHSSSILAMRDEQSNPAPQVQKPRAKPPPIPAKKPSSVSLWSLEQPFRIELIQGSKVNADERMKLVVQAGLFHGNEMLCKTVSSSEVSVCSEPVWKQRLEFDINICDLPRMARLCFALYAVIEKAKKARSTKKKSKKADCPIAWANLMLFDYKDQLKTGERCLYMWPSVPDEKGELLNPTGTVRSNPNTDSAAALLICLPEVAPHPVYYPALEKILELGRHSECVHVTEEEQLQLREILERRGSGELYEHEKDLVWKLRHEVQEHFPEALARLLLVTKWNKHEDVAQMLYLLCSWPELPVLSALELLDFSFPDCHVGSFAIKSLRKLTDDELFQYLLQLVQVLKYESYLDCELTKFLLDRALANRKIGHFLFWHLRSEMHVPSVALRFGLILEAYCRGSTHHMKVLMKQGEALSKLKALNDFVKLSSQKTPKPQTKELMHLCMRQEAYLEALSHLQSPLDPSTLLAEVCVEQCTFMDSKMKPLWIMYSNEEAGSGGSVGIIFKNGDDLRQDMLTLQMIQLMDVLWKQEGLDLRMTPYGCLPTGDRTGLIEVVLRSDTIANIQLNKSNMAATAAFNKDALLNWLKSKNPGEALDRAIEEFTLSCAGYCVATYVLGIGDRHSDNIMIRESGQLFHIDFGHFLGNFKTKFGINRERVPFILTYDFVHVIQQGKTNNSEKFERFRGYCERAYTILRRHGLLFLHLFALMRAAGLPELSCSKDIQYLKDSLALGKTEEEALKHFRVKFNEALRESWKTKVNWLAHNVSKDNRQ
# procedure-details: Inhibition of His-tagged recombinant human PI3K p110delta/p85alpha using lipid substrate incubated for 2 hrs by ADP-Glo assay
pIC50: −log10 of the molar value.
measured-property: pIC50

>>> df
                                   molecule  observed
0  CC(Nc1nc(Cl)nc2[nH]cnc12)C1=Nc2ccccc2S(=O)(=O)N1c1ccccc1 (centres undefined)      5.92
1  C[C@@H](Nc1ncnc2[nH]cnc12)C1=Nc2cccc(Cl)c2S(=O)(=O)N1c1ccccc1      7.21

(I) CCC(Nc1ncnc(N)c1C#N)C1=Nc2cccc(Cl)c2S(=O)(=O)N1c1ccccc1 (centres undefined)
(II) CC(C1=Nc2ccccc2S(=O)(=O)N1c1ccccc1)n1cnc2c(N)ncnc21 (centres undefined)
(III) C[C@H](Nc1ncnc2[nH]cnc12)C1=Nc2cccc(Cl)c2S(=O)(=O)N1c1ccccc1
(IV) CC(C1=Nc2ccccc2S(=O)(=O)N1c1ccc(F)cc1)n1cnc2c(N)ncnc21 (centres undefined)
(V) CC(Nc1ncnc(N)c1C#N)C1=Nc2cccc(F)c2S(=O)(=O)N1c1ccccc1 (centres undefined)
Order these by pIC50, descending, and give the full ranking. Your answer should be the labels, listed in the requested order. III, I, V, II, IV
(III: 8.34, I: 7.92, V: 7.46, II: 7.17, IV: 6.20)

====

# subject-of-test: Phosphatidylinositol 4,5-bisphosphate 3-kinase catalytic subunit beta isoform (Homo sapiens)
# Sequence (P42338 whole entry, canonical isoform): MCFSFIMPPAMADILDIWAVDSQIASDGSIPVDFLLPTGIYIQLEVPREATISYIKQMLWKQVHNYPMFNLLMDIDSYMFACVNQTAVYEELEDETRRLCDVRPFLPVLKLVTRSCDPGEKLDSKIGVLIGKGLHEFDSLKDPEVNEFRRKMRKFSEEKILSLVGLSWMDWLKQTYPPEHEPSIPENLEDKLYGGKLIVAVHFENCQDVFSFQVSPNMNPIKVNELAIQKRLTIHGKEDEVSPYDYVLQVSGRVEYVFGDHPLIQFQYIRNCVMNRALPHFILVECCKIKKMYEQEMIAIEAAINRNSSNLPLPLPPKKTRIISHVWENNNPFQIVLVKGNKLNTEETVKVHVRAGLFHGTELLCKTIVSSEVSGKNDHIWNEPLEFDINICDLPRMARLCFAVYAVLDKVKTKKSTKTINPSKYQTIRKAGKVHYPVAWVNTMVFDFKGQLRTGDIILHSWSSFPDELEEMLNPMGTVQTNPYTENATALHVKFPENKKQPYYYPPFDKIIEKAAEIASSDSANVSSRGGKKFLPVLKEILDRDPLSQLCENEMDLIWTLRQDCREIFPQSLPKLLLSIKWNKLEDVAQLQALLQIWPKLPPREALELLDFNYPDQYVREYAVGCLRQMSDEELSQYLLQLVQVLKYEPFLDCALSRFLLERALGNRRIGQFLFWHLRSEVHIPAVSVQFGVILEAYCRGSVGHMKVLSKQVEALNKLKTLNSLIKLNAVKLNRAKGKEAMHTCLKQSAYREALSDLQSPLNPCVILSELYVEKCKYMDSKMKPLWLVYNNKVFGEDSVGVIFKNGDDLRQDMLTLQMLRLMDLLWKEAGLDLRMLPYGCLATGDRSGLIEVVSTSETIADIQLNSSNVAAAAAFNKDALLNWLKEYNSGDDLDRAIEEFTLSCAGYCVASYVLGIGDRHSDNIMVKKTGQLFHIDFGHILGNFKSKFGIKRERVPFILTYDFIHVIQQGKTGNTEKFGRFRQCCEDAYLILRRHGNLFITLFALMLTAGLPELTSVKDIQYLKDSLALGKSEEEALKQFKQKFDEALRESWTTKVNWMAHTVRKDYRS
# procedure-details: Inhibition of His6-tagged recombinant full length human N-terminal PI3Kbeta expressed in baculovirus infected Sf21 cells using lipid substrate incubated for 2 hrs by ADP-Glo assay
measured-property: IC50 (nM)

(P) C[C@H](Nc1ncnc2[nH]cnc12)C1=Nc2cccc(Cl)c2S(=O)(=O)N1c1ccccc1
(Q) C[C@@H](Nc1ncnc(N)c1C#N)C1=Nc2cccc(Cl)c2S(=O)(=O)N1c1ccccc1
(R) C[C@H](Nc1ncnc(N)c1C#N)C1=Nc2cccc(Cl)c2S(=O)(=O)N1c1ccccc1
(S) C[C@@H](Nc1ncnc2[nH]cnc12)C1=Nc2cccc(Cl)c2S(=O)(=O)N1c1ccccc1
Order required: smallest reported IC50 first, largest last, for all compounds above. Your answer should be the labels, listed in the requested order. R, Q, P, S
(R: 55 nM, Q: 169 nM, P: 766 nM, S: 3990 nM)

====

# subject-of-test: PI3-kinase p110-delta/p85-alpha (Homo sapiens, UniProt O00329)
# procedure-details: Inhibition of His-tagged recombinant human PI3K p110delta/p85alpha using lipid substrate incubated for 2 hrs by ADP-Glo assay
pIC50: −log10 of the molar value.
measured-property: pIC50

Some entries whose results are on file:
In [3]: df
Out[3]:
                                   compound                           subject_of_test  measured_property  observed
0  CC(Nc1ncnc2[nH]cnc12)C1=Nc2ccccc2S(=O)(=O)N1c1ccccc1 (centres undefined)  PI3-kinase p110-delta/p85-alpha (Homo sapiens, UniProt O00329)              pIC50      6.46
1  CC(Nc1ncnc2[nH]cnc12)C1=Nc2ccccc2S(=O)(=O)N1c1cccnc1 (centres undefined)  PI3-kinase p110-delta/p85-alpha (Homo sapiens, UniProt O00329)              pIC50      6.04

(P) CC(Nc1ncnc2[nH]cnc12)C1=Nc2ccccc2S(=O)(=O)N1c1ccc(F)cc1 (centres undefined)
(Q) CC(Nc1ncnc(N)c1C#N)C1=Nc2cccc(Cl)c2S(=O)(=O)N1c1ccccc1 (centres undefined)
Identify the entry with the larger pIC50. Options: P and Q Returns: label corresponding to the selected item. Q
(Q: 8.49, P: 5.70)

All values here come from ChEMBL document CHEMBL4385593.
